Data provenance: ChEMBL document CHEMBL3616451

# Tested on: Pseudomonas fluorescens
# experiment: Antibacterial activity against Pseudomonas fluorescens ATCC 13525 assessed as growth inhibition at 30 ug/ml relative to control
# Type: functional
# applied conditions: read-out: GI
measurement type: inhibition of growth at 30 µg/mL (%)
Provide only the numeric value, understood in %.

Incoming: Given the molecule CCOC(=O)N[C@@H]1C(=O)[C@]2(C)[C@@H]([C@H](C)CCC(=O)OC)CC[C@H]2[C@H]2[C@H]1[C@@]1(C)CC[C@@H](OC(C)=O)C[C@H]1C[C@H]2OC(C)=O , what is its reported inhibition of growth at 30 µg/mL?
Outgoing: 54.5

Incoming: What do we get for COC(=O)CC[C@@H](C)[C@H]1CC[C@H]2[C@H]3[C@H]([C@H](n4nnc5ccccc54)C(=O)[C@]12C)[C@@]1(C)CC[C@@H](OC(C)=O)C[C@H]1C[C@H]3OC(C)=O ?
Outgoing: 46.8

Incoming: Likewise for COC(=O)CC[C@@H](C)[C@H]1CC[C@H]2[C@H]3[C@H]([C@H](NC(=O)[C@H]4CCCN4C(=O)OC(C)(C)C)C(=O)[C@]12C)[C@@]1(C)CC[C@@H](OC(C)=O)C[C@H]1C[C@H]3OC(C)=O ?
Outgoing: 61.5

Incoming: Another molecule: COC(=O)CC[C@@H](C)[C@H]1CC[C@H]2[C@H]3[C@H]([C@H](n4cc(-c5ccc(F)cc5)nn4)C(=O)[C@]12C)[C@@]1(C)CC[C@@H](OC(C)=O)C[C@H]1C[C@H]3OC(C)=O
Outgoing: 23.2

* * *

# System: Mycobacterium tuberculosis
# experiment: Anti-tubercular activity against rifampicin, isoniazid, ethambutol and pyrazinamide-sensitive dormant phage of Mycobacterium tuberculosis H37Ra ATCC 25177 infected in human THP1 cells by neutral red assay
# Type: functional, organism-based
# applied conditions: H37Ra ATCC 25177, THP-1
Please respond with reported IC90 for every item in the list.
Please state the figure in µg/mL; there is no need to write the unit.

Incoming: Need IC90 of COC(=O)CC[C@@H](C)[C@H]1CC[C@H]2[C@H]3[C@H]([C@H](NC(=O)C(CO)NC(=O)OC(C)(C)C)C(=O)[C@]12C)[C@@]1(C)CC[C@@H](OC(C)=O)C[C@H]1C[C@H]3OC(C)=O (some centres not stated) , thanks.
Outgoing: 26.3

Incoming: Now the same for COC(=O)CC[C@@H](C)[C@H]1CC[C@H]2[C@H]3[C@H]([C@H](NC(=O)[C@H]4CCCN4C(=O)OC(C)(C)C)C(=O)[C@]12C)[C@@]1(C)CC[C@@H](OC(C)=O)C[C@H]1C[C@H]3OC(C)=O
Outgoing: 23.8

* * *

# Tested on: Mycobacterium tuberculosis
# experiment: Anti-tubercular activity against rifampicin, isoniazid, ethambutol and pyrazinamide-sensitive Mycobacterium tuberculosis H37Ra ATCC 25177 assessed as growth inhibition at 10 ug/ml by XRMA method relative to control
# Type: functional
# applied conditions: read-out: GI
measurement type: inhibition of growth at 10 µg/mL

Incoming: For the compound COC(=O)CC[C@@H](C)[C@H]1CC[C@H]2[C@H]3[C@H]([C@H](N)C(=O)[C@]12C)[C@@]1(C)CC[C@@H](OC(C)=O)C[C@H]1C[C@H]3OC(C)=O , what inhibition of growth at 10 µg/mL is on record?
Outgoing: < 1%

Incoming: Please answer likewise for COC(=O)CC[C@@H](C)[C@H]1CC[C@H]2[C@H]3[C@H]([C@H](n4cc(-c5ccccc5)nn4)C(=O)[C@]12C)[C@@]1(C)CC[C@@H](OC(C)=O)C[C@H]1C[C@H]3OC(C)=O
Outgoing: 68%

Incoming: Likewise for COC(=O)CC[C@@H](C)[C@H]1CC[C@H]2[C@@H]3[C@H](OC(C)=O)C[C@@H]4C[C@H](OC(C)=O)CC[C@]4(C)[C@H]3CC(=O)[C@]12C ?
Outgoing: 28%

Incoming: // repeat for CCOC(=O)N[C@@H]1C(=O)[C@]2(C)[C@@H]([C@H](C)CCC(=O)OC)CC[C@H]2[C@H]2[C@H]1[C@@]1(C)CC[C@@H](OC(C)=O)C[C@H]1C[C@H]2OC(C)=O and report
Outgoing: 73%

Incoming: Next compound up: COC(=O)CC[C@@H](C)[C@H]1CC[C@H]2[C@H]3[C@H]([C@H](n4cc(-c5ccccn5)nn4)C(=O)[C@]12C)[C@@]1(C)CC[C@@H](OC(C)=O)C[C@H]1C[C@H]3OC(C)=O
Outgoing: 48%

Incoming: Again, but for COC(=O)CC[C@@H](C)[C@H]1CC[C@H]2[C@H]3[C@H]([C@H](n4cc(-c5ccc(F)cc5)nn4)C(=O)[C@]12C)[C@@]1(C)CC[C@@H](OC(C)=O)C[C@H]1C[C@H]3OC(C)=O
Outgoing: 75%

Incoming: Another compound to look at: COC(=O)CC[C@@H](C)[C@H]1CC[C@H]2[C@H]3[C@H]([C@H](n4nnc5ccccc54)C(=O)[C@]12C)[C@@]1(C)CC[C@@H](OC(C)=O)C[C@H]1C[C@H]3OC(C)=O
Outgoing: 94%

Incoming: And what about the compound COC(=O)CC[C@@H](C)[C@H]1CC[C@H]2[C@H]3[C@H]([C@H](NC(=O)C(CO)NC(=O)OC(C)(C)C)C(=O)[C@]12C)[C@@]1(C)CC[C@@H](OC(C)=O)C[C@H]1C[C@H]3OC(C)=O (some centres undefined) ?
Outgoing: 73%

Incoming: Entry COC(=O)CC[C@@H](C)[C@H]1CC[C@H]2[C@H]3[C@H]([C@H](NC(C)C)C(=O)[C@]12C)[C@@]1(C)CC[C@@H](OC(C)=O)C[C@H]1C[C@H]3OC(C)=O please
Outgoing: 71%
